tested on: SK-MEL-2 melanoma; experiment: NCI-60 one-dose screen, 48 h; conditions: 10 µM unless noted
Compounds without any hit were thinned out: in the full panel of roughly 83,000, 20% have a hit. The source made the active and inactive calls. How the source made its calls: active means growth percent below 10; inactive means the rest.
Entry note: the call must match one of active, inactive

>  <Item Smiles>
FC1(F)CCN(Cc2c[nH]c3cc(Cl)ccc23)C[C@H]1CCc1ccccc1

>  <Label Class>
inactive

$$$$

Status in this test for "C=CCn1c(C)nc2cc(Nc3nc(Nc4ccc5nc(C)n(CC=C)c5c4)nc4ccccc34)ccc21" ? inactive

Continue with "O=C(NC1CC1)c1ccc(-c2nc3ccc4[nH]ncc4c3c3c2CCCC3)cc1" active

----------
system: NCI-H460 lung; experiment: NCI-60 one-dose screen, 48 h (100 = growth as untreated, 0 = no growth, -100 = all killed); conditions: 10 µM unless noted
The panel holds about 83,000 compounds, 20% with a hit somewhere; the sample as a whole holds those more often.
Readout Type: growth (%)
Value expressed in %; do not type the unit.

Before answering, review these 3 worked examples.
>  <Item Smiles>
COc1ccc(/C(=C\c2cc(OC)c(OC)c(OC)c2)C(=O)N2CCNCC2)cc1

>  <growth, %>
105

$$$$
>  <Item Smiles>
Cc1nc2ccc(Nc3nc(N4CCOCC4)nc(N4CCN(C)CC4)n3)cc2n1Cc1ccccc1

>  <growth, %>
97.8

$$$$
>  <Item Smiles>
NNC(=O)Cc1ccccc1

>  <growth, %>
94.7

$$$$

// next item, growth requested
Looking for the measured growth of "COCCn1c(Nc2ccc(C(=O)NO)cc2)nc2ccccc21" , can you help? 56.7

----------
# growth values compiled below
system: UO-31 renal; assay: NCI-60 one-dose screen, 48 h (100 = growth as untreated, 0 = no growth, -100 = all killed); settings: 10 µM unless noted
Compounds without any hit were thinned out: in the full panel of roughly 83,000, 20% have a hit. Active and inactive are the calls of the source. The calls were made as follows: active = growth percent below 10; inactive = the rest.

Before answering, review these 5 worked examples.
>  <Molecule>
O=C(C=P(c1ccccc1)(c1ccccc1)c1ccccc1)CCl

>  <growth>
-95.4% (active)

$$$$
>  <Molecule>
CCc1ccc2c(c1)N(CCO)C1=C(C(=O)OC1)C2c1cccc(Br)c1 (stereo not drawn)

>  <growth>
34% (inactive)

$$$$
>  <Molecule>
O=C1C2=C(C(=O)c3c(O)ccc(O)c31)N(c1ccc(N3CCOCC3)nc1)Cc1ccccc1O2

>  <growth>
-100% (active)

$$$$
>  <Molecule>
O=C(/C=C/c1cc([N+](=O)[O-])ccc1Cl)c1ccccc1

>  <growth>
70.8% (inactive)

$$$$
>  <Molecule>
Cc1n(Cc2ccc3ccccc3n2)cc[n+]1Cc1ccc2ccccc2c1

>  <growth>
81% (inactive)

$$$$

Looking for the measured growth of "N#Cc1c(N)c(C(=O)c2ccc3c(c2)OCCO3)n2c1CCCC2" , can you help? 34.4% (inactive)

Continue with "O=C(Cc1ccc(Nc2ccnc(C(F)(F)F)c2)cc1)N/N=C/c1ccccc1O" 0.112% (active)

Continue with "Cc1ccc(NC(=O)Cn2nncc2CN2C(=O)CSC2=O)cc1C" 91.6% (inactive)

Continue with "CCNC(=S)N(Cc1ccccc1)Cc1ccccc1" 74.6% (inactive)

Continue with "COc1ccc(/C=c2\c(=O)n(-c3ccccc3)c3nn4c(=O)c(=O)[nH]nc4n23)cc1" 83% (inactive)

Continue with "O=c1[nH]cnc2nc[nH]c12" 94.2% (inactive)

Continue with "C=CCn1c(C)nc2cc(Nc3nc(N4CCCC4)nc4nc[nH]c34)ccc21" 61.2% (inactive)

Continue with "CCCCCCCCCCCCCCCC1=NCC[N+]1(CCO)CCO" 42.1% (inactive)
